Molecular target: T1, human ANGPTL3/8 complex (human, UniProt Q9Y5C1 17-460; Q6UXH0 22-198, limits assumed)
T1 construct: also called hANGPTL3/8 complex; ANGTPL3/8 complex
T1 sequence 1: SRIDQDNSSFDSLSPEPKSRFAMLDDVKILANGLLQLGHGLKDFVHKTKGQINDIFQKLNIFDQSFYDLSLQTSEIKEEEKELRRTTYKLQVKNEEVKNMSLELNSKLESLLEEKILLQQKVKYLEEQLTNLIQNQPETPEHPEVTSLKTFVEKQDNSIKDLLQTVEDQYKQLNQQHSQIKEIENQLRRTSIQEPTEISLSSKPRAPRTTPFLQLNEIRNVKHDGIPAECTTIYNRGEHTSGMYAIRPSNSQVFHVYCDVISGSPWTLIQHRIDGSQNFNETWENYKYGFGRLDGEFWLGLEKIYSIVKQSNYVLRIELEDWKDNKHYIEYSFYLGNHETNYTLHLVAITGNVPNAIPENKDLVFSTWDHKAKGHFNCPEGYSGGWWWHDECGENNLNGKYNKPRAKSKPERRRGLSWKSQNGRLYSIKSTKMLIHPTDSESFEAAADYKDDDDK
T1 sequence 2: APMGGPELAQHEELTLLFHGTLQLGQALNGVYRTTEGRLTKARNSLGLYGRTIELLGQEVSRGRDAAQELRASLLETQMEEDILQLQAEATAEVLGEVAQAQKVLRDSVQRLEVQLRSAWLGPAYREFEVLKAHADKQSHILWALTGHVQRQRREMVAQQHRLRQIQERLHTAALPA
Test: ELISA; Ab captured by anti-human Fc; biotinylated antigen at 3.70 nM
Protocol: ELISA Assay: Ab binding selectivity to either the ANGPTL3/8 complex, free ANGPTL3 or free ANGPTL8 is verified using standard ELISA assays. […] Ab from CHO supernatants after expression in CHO cells is then captured to the assay plate and results is an Ab concentration of 2 μg/ml. […] Ab/antigen complexes are detected after the addition of alkaline phosphatase-conjugated neutravidin, and alkaline phosphatase substrate, and subsequent measurement of the optical density at 560 nm.
Readings of OD at 560 nm for the listed binders

For orientation, consider the following solved cases.
INSERT INTO measurements (binder, reported) VALUES
  ('anti-ANGPTL3/8 complex Ab having a LC of SEQ ID NO:5 and a HC of SEQ ID NO:6 (antibody, human IgG4 S228P, kappa, F234A L235A, V domains shown, In the ELISA assays tested as IgG from CHO supernatants; also called the Ab) VH: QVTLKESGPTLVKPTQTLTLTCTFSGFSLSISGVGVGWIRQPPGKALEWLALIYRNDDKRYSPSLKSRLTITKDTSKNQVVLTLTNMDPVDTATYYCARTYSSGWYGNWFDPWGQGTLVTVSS VL: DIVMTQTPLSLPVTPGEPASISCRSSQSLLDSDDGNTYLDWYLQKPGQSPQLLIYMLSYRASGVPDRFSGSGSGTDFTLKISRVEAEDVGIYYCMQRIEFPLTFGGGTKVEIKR', '1.04 OD 560 nm'),
  ('Ab with LC variant having a E99Q mutation (SEQ ID NO:25) and a HC of SEQ ID NO:6 (antibody, human IgG4 S228P, kappa, F234A L235A, V domains shown, also called E99Q Variant Ab; E99Q Ab) VH: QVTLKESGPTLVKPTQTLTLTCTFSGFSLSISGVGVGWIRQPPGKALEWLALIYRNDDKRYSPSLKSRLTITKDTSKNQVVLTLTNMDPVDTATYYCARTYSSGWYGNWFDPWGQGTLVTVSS VL: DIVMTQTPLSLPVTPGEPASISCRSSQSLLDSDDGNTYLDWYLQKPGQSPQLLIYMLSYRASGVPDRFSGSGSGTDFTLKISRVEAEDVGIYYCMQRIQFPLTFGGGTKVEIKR', '1.13 OD 560 nm'),
  ('Ab with LC variant having a D31S mutation (SEQ ID NO:21) and a HC of SEQ ID NO:6 (antibody, human IgG4 S228P, kappa, F234A L235A, V domains shown, also called D31S Variant Ab; D31S Ab) VH: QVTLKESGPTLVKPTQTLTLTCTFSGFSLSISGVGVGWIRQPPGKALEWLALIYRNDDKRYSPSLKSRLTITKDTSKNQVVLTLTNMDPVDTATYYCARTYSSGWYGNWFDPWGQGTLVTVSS VL: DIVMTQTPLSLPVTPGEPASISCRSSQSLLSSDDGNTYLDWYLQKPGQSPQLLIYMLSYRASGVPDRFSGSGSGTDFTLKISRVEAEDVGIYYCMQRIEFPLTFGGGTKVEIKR', '1.13 OD 560 nm');

Proceed to the following item.
Which OD at 560 nm is listed for Ab with LC variant having a D33A mutation (SEQ ID NO:22) and a HC of SEQ ID NO:6 (antibody, human IgG4 S228P, kappa, F234A L235A, V domains shown, also called D33A Variant Ab; D33A Ab) VH: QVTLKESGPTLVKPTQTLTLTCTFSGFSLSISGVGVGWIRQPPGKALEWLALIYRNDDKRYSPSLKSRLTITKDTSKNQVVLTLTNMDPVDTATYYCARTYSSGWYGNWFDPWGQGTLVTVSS VL: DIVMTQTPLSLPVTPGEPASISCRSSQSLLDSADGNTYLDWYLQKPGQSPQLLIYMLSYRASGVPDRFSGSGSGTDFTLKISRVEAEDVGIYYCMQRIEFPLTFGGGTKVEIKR ?
1.04 OD 560 nm
